Molecular target: mouse Claudine18.2 (mouse) (UniProt P56857)
Assay: FACS on CHOK1-m18.2 cells
PROPERTY MEASURED: FACS MFI

Request: Please report the recorded FACS MFI for Ab37 (antibody, V domains shown) VH: EVKLEESGGGLVQPGGSMKLSCVASGFTFSNYWMNWVRQYPEQGLEWVAQIRLNSDNYATHYAESVKGRFTISRDDSRSTVYLQMNNLRAEDTGIYYCTGGGEYWGQGTTLTVSS VL: DIVMTQSQKFMSTTIGDRVSITCKASQNVDTAVAWYQQKPGQSPKLLIYSASTRYTGVPDRFTGSGSGTDFTLTISNMQSEDLADYFCQQYISYQLTFGAGTKLELK .
Response: 18600

Request: Likewise for Ab30 (antibody, V domains shown) VH: QVQLKESGPGLVAPSQSLSITCTVSGFSLTKFGVNWVRQPPGKGLEWLGAIWGDGSTNYHSALISRLSINKDNSKSQVFLKLSSLQNVDTATYYCAKSGYGNAMDYWGHGTSVTVSS VL: DIVMTQSPSSLTVTTGEKVTLNCKSSQSLLNSGNLKNYLTWYQQRPGQPPKLLIYWASTRESGVPYRFTGSGSGTDFTLTISNVQAEDLAIYYCQNDYFFPFTFGSGTKLEIK ?
Response: 9610

Request: Likewise for Ab03 (antibody, V domains shown) VH: EVQLQQSGPELVKPGASVKIACKASGYTFTDYNMDWVKQSHGKSLEWIGNINSYYGGTIYNQKFKGKATLTVDKSSSTAYMVLRSLTSEDNAVYYCARPHLGNALDYWGQGTSITVSS VL: DIVVTQSPSSLTVTPGEKVTMSCKSSQSLFNSGNQKNYLSWYQQNPGQPPKLLIYWASTRQSGVPDRFTGSGSGTDFTLTISSVQAEDLAGYYCQNDYIFPLTFGAGTKLELK ?
Response: 2970
